Below, each entry is listed alongside its reported melting point.

Example entries begin here.
- molecule: "CC(C)C(NC(=O)Nc1ccccc1)C(=O)O (stereo not drawn)"
  recorded result: "140 to 142 °C"
- molecule: "COC(=O)c1nc(Cc2ccccc2Cl)n2ccccc12"
  recorded result: "131 to 133 °C"
- molecule: "CN1CC(=O)N(Cc2ccc(C(N)=O)cc2N)C1=O"
  recorded result: "187 to 189 °C"

// recorded melting point for CC1(c2ccsc2)CC(=O)NC1=O (stereo not drawn) : 96 to 98 °C

// recorded melting point for `COc1ccc2[nH]c(C)c(C(=O)CCl)c2c1` : 224 to 226 °C

// recorded melting point for COC(=O)NC(C(=O)O)C(C)C (stereo not drawn) : 83 to 85 °C

// recorded melting point for `Nc1cccc(Cn2cnc3ccccc32)c1` : 168 to 170 °C

// recorded melting point for `O=C(c1c[nH]c2ccccc12)N1CCCC1` : 229 to 231 °C

The measured values listed here are drawn from a melting point compilation (Tetko et al.).
